subject of test: ITK (Homo sapiens)
Construct: purchased Carna Biosciences
Sequence (Q08881 1-620): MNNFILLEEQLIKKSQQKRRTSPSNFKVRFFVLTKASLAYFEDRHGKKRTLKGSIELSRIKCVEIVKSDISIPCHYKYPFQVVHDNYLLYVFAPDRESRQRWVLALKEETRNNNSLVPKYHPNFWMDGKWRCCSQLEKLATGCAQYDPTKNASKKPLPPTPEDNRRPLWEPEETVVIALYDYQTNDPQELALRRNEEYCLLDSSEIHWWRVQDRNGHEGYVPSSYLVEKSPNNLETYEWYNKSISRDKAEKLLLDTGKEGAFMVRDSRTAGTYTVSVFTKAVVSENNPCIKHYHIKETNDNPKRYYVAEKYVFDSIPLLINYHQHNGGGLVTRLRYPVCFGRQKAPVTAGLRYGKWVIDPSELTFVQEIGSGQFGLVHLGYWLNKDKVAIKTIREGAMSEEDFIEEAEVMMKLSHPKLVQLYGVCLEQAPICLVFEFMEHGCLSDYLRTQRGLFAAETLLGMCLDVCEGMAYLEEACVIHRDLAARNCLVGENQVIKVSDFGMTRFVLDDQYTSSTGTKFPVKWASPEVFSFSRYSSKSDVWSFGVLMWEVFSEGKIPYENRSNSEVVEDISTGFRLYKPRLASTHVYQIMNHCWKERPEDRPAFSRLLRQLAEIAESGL
experiment description: cell-free kinase assay
Type: biochemical
assay setup: ITK; 1 mM ATP; Km ATP 6.1 μM
reported metric: IC50

// Input: CC(C)C(C)CNCc1ccc2c(c1)[nH]/c(=N\C(=O)c1ccc(C3=CN=NC3)s1)n2CC(C)(C)O (stereo not shown) [BI 10N] . Output its IC50 only.
1.43 nM

* * *

subject of test: TRKA (Homo sapiens, UniProt P04629)
Construct: purchased Carna Biosciences
Sequence (P04629 33-796): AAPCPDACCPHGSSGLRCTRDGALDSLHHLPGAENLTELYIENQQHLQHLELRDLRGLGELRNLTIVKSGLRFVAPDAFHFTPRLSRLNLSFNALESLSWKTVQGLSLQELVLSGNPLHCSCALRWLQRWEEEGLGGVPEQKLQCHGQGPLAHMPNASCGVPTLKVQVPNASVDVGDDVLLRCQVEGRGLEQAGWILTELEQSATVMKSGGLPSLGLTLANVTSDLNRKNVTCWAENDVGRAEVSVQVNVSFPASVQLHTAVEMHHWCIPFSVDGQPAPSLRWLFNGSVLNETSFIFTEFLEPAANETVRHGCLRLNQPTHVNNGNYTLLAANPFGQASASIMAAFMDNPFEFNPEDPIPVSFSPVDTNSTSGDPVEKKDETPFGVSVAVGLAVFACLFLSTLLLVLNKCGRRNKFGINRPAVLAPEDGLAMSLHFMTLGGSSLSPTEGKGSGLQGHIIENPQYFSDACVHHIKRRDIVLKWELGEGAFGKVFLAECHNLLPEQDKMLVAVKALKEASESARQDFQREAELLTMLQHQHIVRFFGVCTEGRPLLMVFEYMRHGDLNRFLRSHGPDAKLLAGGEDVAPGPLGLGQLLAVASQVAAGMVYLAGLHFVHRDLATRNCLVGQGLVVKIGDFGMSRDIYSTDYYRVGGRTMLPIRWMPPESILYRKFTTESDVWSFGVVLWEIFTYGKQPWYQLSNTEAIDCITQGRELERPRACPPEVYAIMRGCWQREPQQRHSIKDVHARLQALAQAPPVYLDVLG
experiment description: cell-free kinase assay
Format: biochemical
assay setup: TRKA; 1 mM ATP; Km ATP 65 μM
Source text: We investigated the potency and selectivity of BI 10N against 56 kinases using a cell-free assay (Table 8A). […] The selectivity of this inhibitor was investigated by testing the potency of the inhibitor at two concentrations with 53 kinases by Carna Biosciences (MA) (Table 2).
reported metric: pIC50
One number for each entry, as −log10 of the molar value.

Name the recorded pIC50 of the item CC(C)C(C)CNCc1ccc2c(c1)[nH]/c(=N\C(=O)c1ccc(C3=CN=NC3)s1)n2CC(C)(C)O (stereo not shown) [BI 10N] in your answer.
9.08

* * *

subject of test: UniProt Q16288
Sequence (Q16288 32-839): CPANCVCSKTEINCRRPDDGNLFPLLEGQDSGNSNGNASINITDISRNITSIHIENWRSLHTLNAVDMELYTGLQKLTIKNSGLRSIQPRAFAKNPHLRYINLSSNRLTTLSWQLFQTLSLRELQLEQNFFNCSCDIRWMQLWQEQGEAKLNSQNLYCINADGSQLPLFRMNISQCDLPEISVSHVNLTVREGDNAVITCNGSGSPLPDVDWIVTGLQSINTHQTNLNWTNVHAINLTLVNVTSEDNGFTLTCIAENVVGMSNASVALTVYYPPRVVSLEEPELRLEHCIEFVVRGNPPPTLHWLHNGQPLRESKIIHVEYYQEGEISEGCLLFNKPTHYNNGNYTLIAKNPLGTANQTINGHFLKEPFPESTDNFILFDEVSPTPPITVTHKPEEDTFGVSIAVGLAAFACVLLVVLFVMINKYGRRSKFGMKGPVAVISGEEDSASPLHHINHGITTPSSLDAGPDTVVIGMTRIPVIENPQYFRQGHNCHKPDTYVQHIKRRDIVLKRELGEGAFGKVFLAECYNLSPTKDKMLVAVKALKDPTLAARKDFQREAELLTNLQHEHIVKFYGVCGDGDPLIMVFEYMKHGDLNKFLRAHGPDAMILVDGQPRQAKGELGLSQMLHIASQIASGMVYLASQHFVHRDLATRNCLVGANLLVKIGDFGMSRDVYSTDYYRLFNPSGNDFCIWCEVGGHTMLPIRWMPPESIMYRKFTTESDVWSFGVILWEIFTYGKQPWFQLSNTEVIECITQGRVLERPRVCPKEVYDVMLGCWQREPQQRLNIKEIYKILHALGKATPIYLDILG
reported metric: IC50 (nM)
One number for each entry, in nM.

Using known records, supply IC50 for CC(C)C(C)CNCc1ccc2c(c1)[nH]/c(=N\C(=O)c1ccc(C3=CN=NC3)s1)n2CC(C)(C)O (stereo not shown) [BI 10N]
1.58

* * *

subject of test: ITK (Homo sapiens, UniProt Q08881)
Construct: purchased Carna Biosciences
experiment description: cell-free kinase assay
Type: biochemical
assay setup: ITK; Table 2, by Carna Biosciences
reported metric: pIC50
Answers are plain numbers, as −log10 of the molar value.

Using known records, supply pIC50 for CC(C)C(C)CNCc1ccc2c(c1)[nH]/c(=N\C(=O)c1ccc(C3=CN=NC3)s1)n2CC(C)(C)O (stereo not shown) [BI 10N]
9.31

* * *

subject of test: MST1 (Homo sapiens, UniProt Q13043)
Construct: purchased Carna Biosciences
Sequence (Q13043 whole entry): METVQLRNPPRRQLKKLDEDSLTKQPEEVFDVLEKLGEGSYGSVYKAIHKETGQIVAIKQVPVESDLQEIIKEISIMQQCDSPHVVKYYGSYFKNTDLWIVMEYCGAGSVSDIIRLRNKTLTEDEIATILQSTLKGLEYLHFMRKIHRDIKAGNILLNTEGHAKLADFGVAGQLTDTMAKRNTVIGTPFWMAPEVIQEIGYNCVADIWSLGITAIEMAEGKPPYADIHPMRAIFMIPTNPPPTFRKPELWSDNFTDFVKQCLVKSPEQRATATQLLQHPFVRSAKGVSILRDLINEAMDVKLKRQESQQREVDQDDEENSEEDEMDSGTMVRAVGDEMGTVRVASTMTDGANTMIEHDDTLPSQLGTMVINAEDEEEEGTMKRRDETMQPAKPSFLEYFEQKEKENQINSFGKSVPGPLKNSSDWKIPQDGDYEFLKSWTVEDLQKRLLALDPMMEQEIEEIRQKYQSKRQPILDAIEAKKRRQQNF
experiment description: cell-free kinase assay
Type: biochemical
assay setup: ATP concentration at approximately the Km for ATP
reported metric: pIC50
One number for each entry, as −log10 of the molar value.

Please give the documented pIC50 of C[C@]12O[C@H](C[C@]1(O)C(=O)O)n1c3ccccc3c3c4c(c5c6ccccc6n2c5c31)CNC4=O [K252b]
8.46
